Catalogue of Bliss excess readings, one per entry.
tested on: ACHN (Kidney Carcinoma); assay: Bliss excess, mean over the matrix (fraction); higher = more synergy
Write the number on its own, no unit after it.

Consider the following illustrative entries.
CN(CCO)CC[C@H](CSc1ccccc1)Nc1ccc(S(=O)(=O)NC(=O)c2ccc(N3CCC([C@@H](O)c4ccccc4-c4ccc(Cl)cc4)CC3)cc2)cc1S(=O)(=O)C(F)(F)F [AZD4320] + CC(=O)O[C@H]1C(=O)[C@@]2(C)[C@H]([C@H](OC(=O)c3ccccc3)[C@]3(O)C[C@H](OC(=O)[C@H](O)[C@@H](NC(=O)c4ccccc4)c4ccccc4)C(C)=C1C3(C)C)[C@]1(OC(C)=O)CO[C@@H]1C[C@@H]2O [Paclitaxel] (first compound max 1 µM, 7x7, partner max 3 µM)	-0.0319
Cc1c2c(nn1C)CSCc1cc(n(C)n1)CSc1cc(c3ccccc3c1)OCCCc1c(C(=O)O)n(C)c3c-2c(Cl)ccc13 [AZD5991] + CCN(CCO)CCCOc1ccc2c(Nc3cc(CC(=O)Nc4cccc(F)c4)[nH]n3)ncnc2c1 [AZD2811] (first compound max 1 µM, 7x7, partner max 1 µM)	0.0541

Now consider the entry below.
Measured Bliss excess, CN(CCO)CC[C@H](CSc1ccccc1)Nc1ccc(S(=O)(=O)NC(=O)c2ccc(N3CCC([C@@H](O)c4ccccc4-c4ccc(Cl)cc4)CC3)cc2)cc1S(=O)(=O)C(F)(F)F [AZD4320] + CCN(CCO)CCCOc1ccc2c(Nc3cc(CC(=O)Nc4cccc(F)c4)[nH]n3)ncnc2c1 [AZD2811] (first compound max 1 µM, 7x7, partner max 1 µM) : 0.0089

###

test system: NB69 (Neuroblastoma); test: Bliss excess, mean over the matrix (fraction); higher = more synergy
Catalogue of Bliss excess readings, one per entry.
Write the number on its own, no unit after it.

CC1(C)CCC(CN2CCN(c3ccc(C(=O)NS(=O)(=O)c4ccc(NCC5CCOCC5)c([N+](=O)[O-])c4)c(Oc4cnc5[nH]ccc5c4)c3)CC2)=C(c2ccc(Cl)cc2)C1 [Venetoclax] + C=CCn1c(=O)c2cnc(Nc3ccc(N4CCN(C)CC4)cc3)nc2n1-c1cccc(C(C)(C)O)n1 [AZD1775] (first compound max 1 µM, partner max 1 µM)	-0.282
CN(CCO)CC[C@H](CSc1ccccc1)Nc1ccc(S(=O)(=O)NC(=O)c2ccc(N3CCC([C@@H](O)c4ccccc4-c4ccc(Cl)cc4)CC3)cc2)cc1S(=O)(=O)C(F)(F)F [AZD4320] + C[C@@H](Nc1cc(F)cc(F)c1)c1cc(C(=O)N(C)C)cc2c(=O)cc(N3CCOCC3)oc12 [AZD8186] (first compound max 1 µM, 7x7, partner max 3 µM)	-0.0381
N#Cc1cnc(Nc2cc(NC[C@H]3CNCCO3)c(C(F)(F)F)cn2)cn1 [SRA737] + C=CCn1c(=O)c2cnc(Nc3ccc(N4CCN(C)CC4)cc3)nc2n1-c1cccc(C(C)(C)O)n1 [AZD1775] (first compound max 10 µM, partner max 1 µM)	0.163
Cc1c2c(nn1C)CSCc1cc(n(C)n1)CSc1cc(c3ccccc3c1)OCCCc1c(C(=O)O)n(C)c3c-2c(Cl)ccc13 [AZD5991] + Cc1cc2ncnn2cc1Nc1ncc2c(n1)n(C1CCOCC1)c(=O)n2C [AZD7648] (first compound max 1 µM, 7x7, partner max 10 µM)	-0.0009
CCc1c2c(nc3ccc(O)cc13)-c1cc3c(c(=O)n1C2)COC(=O)[C@]3(O)CC [SN-38] + CN(C)CCCOc1ccc(-c2ccc3ncc4c(c3c2)n(C2CCOCC2)c(=O)n4C)cn1 [AZD0156] (first compound max 0.3 µM, 7x7, partner max 1 µM)	0.0106
CN(C)CCCOc1ccc(-c2ccc3ncc4c(c3c2)n(C2CCOCC2)c(=O)n4C)cn1 [AZD0156] + C[C@@H]1COCCN1C2=NC(=NC(=C2)C3(CC3)[S@](=N)(=O)C)C4=C5C=CNC5=NC=C4 [AZD6738] (first compound max 1 µM, 7x7, partner max 10 µM)	-0.069

I looked up Cc1nc(-c2cn3c(n2)-c2ccc(-c4cnn(C(C)(C)C(N)=O)c4)cc2OCC3)n(C(C)C)n1 [Taselisib] + O=C(Nc1ccc2[nH]nc(-c3ccncc3)c2c1)[C@@H]1CCN(CC(=O)N2CCN(c3ccc(-c4ncccn4)cc3)CC2)C1 [SCH772984] (first compound max 10 µM, 7x7, partner max 5 µM) and its Bliss excess for NB69 (Neuroblastoma) was -0.0509

###

Catalogue of Bliss excess readings, one per entry.
test system: KMOE-2 (Acute Myeloid Leukemia); assay: Bliss excess, mean over the matrix (fraction); higher = more synergy
Write the number on its own, no unit after it.

CN(C)CCCOc1ccc(-c2ccc3ncc4c(c3c2)n(C2CCOCC2)c(=O)n4C)cn1 [AZD0156] + O=C(c1cc(Cc2n[nH]c(=O)c3ccccc23)ccc1F)N1CCN(C(=O)C2CC2)CC1 [Olaparib] (first compound max 3 µM, partner max 3 µM)	0.0564
CC(=O)c1c(C)c2cnc(Nc3ccc(N4CCNCC4)cn3)nc2n(C2CCCC2)c1=O [Palbociclib] + CC1(C)CCC(CN2CCN(c3ccc(C(=O)NS(=O)(=O)c4ccc(NCC5CCOCC5)c([N+](=O)[O-])c4)c(Oc4cnc5[nH]ccc5c4)c3)CC2)=C(c2ccc(Cl)cc2)C1 [Venetoclax] (first compound max 10 µM, 7x7, partner max 1 µM)	-0.015

Now consider the entry below.
Measured Bliss excess, CC1(C)CCC(CN2CCN(c3ccc(C(=O)NS(=O)(=O)c4ccc(NCC5CCOCC5)c([N+](=O)[O-])c4)c(Oc4cnc5[nH]ccc5c4)c3)CC2)=C(c2ccc(Cl)cc2)C1 [Venetoclax] + C[C@@H]1COCCN1C2=NC(=NC(=C2)C3(CC3)[S@](=N)(=O)C)C4=C5C=CNC5=NC=C4 [AZD6738] (first compound max 1 µM, 7x7, partner max 10 µM) : 0.0071

###

Catalogue of combination Emax readings, one per entry.
tested on: D-263MG (Glioblastoma); assay: combination Emax (second highest fraction inhibited in the dose matrix, 72 h); higher = more inhibition; extreme values may be limits of the assay
Write the number on its own, no unit after it.

CN(C)CCCOc1ccc(-c2ccc3ncc4c(c3c2)n(C2CCOCC2)c(=O)n4C)cn1 [AZD0156] + O=C(c1cc(Cc2n[nH]c(=O)c3ccccc23)ccc1F)N1CCN(C(=O)C2CC2)CC1 [Olaparib] (first compound max 3 µM, partner max 3 µM)	0.196

Now consider the entry below.
Measured combination Emax, Cn1cnc2c(F)c(Nc3ccc(Br)cc3Cl)c(C(=O)NOCCO)cc21 [Selumetinib] + C[C@@H]1COCCN1C2=NC(=NC(=C2)C3(CC3)[S@](=N)(=O)C)C4=C5C=CNC5=NC=C4 [AZD6738] (first compound max 10 µM, 7x7, partner max 10 µM) : 0.359

###

test system: NEC8 (Other Solid Carcinomas); assay: combination Emax (second highest fraction inhibited in the dose matrix, 72 h); higher = more inhibition; extreme values may be limits of the assay
Catalogue of combination Emax readings, one per entry.
Write the number on its own, no unit after it.

COc1cc2c(cc1OCCCCCOc1cc3c(cc1OC)C(=O)N1C=C(C)C[C@H]1C=N3)N=C[C@@H]1CC(C)=CN1C2=O [SG3199] + O=C(c1cc(Cc2n[nH]c(=O)c3ccccc23)ccc1F)N1CCN(C(=O)C2CC2)CC1 [Olaparib] (first compound max 0.001 µM, 7x7, partner max 10 µM)	0.201
CC1(C)CCC(CN2CCN(c3ccc(C(=O)NS(=O)(=O)c4ccc(NCC5CCOCC5)c([N+](=O)[O-])c4)c(Oc4cnc5[nH]ccc5c4)c3)CC2)=C(c2ccc(Cl)cc2)C1 [Venetoclax] + C[C@@H](Nc1cc(F)cc(F)c1)c1cc(C(=O)N(C)C)cc2c(=O)cc(N3CCOCC3)oc12 [AZD8186] (first compound max 1 µM, 7x7, partner max 3 µM)	0.0292

Now consider the entry below.
Measured combination Emax, COc1nnc2ccc(N3CCC(c4ccc(OCCN5CCN(C)C(=O)[C@H]5C)cc4)CC3)nn12 [AZD5153] + CN(CC[C@H](CSC1=CC=CC=C1)NC2=C(C=C(C=C2)S(=O)(=O)NC(=O)C3=CC=C(C=C3)N4CCC(CC4)[C@H](C5=CC=CC=C5C6=CC=C(C=C6)Cl)O)S(=O)(=O)C(F)(F)F)CCO [AZD4320] (first compound max 1 µM, 7x7, partner max 1 µM) : 0.962

###

test system: VA-ES-BJ (Other Solid Carcinomas); assay: Bliss excess, mean over the matrix (fraction); higher = more synergy
readout.name: Bliss excess
Write the number on its own, no unit after it.

Consider the following illustrative entries.
C=CCn1c(=O)c2cnc(Nc3ccc(N4CCN(C)CC4)cc3)nc2n1-c1cccc(C(C)(C)O)n1 [AZD1775] + C1CN(CCC1(C(=O)N[C@@H](CCO)C2=CC=C(C=C2)Cl)N)C3=NC=NC4=C3C=CN4 [Capivasertib] (first compound max 3 µM, partner max 3 µM)	-0.0037
CN(CCO)CC[C@H](CSc1ccccc1)Nc1ccc(S(=O)(=O)NC(=O)c2ccc(N3CCC([C@@H](O)c4ccccc4-c4ccc(Cl)cc4)CC3)cc2)cc1S(=O)(=O)C(F)(F)F [AZD4320] + Cc1cc2ncnn2cc1Nc1ncc2c(n1)n(C1CCOCC1)c(=O)n2C [AZD7648] (first compound max 1 µM, 7x7, partner max 10 µM)	-0.0364

Now consider the entry below.
I looked up CC1(C)CCC(CN2CCN(c3ccc(C(=O)NS(=O)(=O)c4ccc(NCC5CCOCC5)c([N+](=O)[O-])c4)c(Oc4cnc5[nH]ccc5c4)c3)CC2)=C(c2ccc(Cl)cc2)C1 [Venetoclax] + CN(C)CCCOc1ccc(-c2ccc3ncc4c(c3c2)n(C2CCOCC2)c(=O)n4C)cn1 [AZD0156] (first compound max 1 µM, 7x7, partner max 1 µM) and its Bliss excess for VA-ES-BJ (Other Solid Carcinomas) was -0.0204

Taken from the supplement of paper PMC11061612.
